For each record, write down the corresponding cGMP Assay (EC50, pM) w/BSA.
Target: T1, rat NPRA (rat, UniProt P18910 29-1057)
T1 sequence (looked up): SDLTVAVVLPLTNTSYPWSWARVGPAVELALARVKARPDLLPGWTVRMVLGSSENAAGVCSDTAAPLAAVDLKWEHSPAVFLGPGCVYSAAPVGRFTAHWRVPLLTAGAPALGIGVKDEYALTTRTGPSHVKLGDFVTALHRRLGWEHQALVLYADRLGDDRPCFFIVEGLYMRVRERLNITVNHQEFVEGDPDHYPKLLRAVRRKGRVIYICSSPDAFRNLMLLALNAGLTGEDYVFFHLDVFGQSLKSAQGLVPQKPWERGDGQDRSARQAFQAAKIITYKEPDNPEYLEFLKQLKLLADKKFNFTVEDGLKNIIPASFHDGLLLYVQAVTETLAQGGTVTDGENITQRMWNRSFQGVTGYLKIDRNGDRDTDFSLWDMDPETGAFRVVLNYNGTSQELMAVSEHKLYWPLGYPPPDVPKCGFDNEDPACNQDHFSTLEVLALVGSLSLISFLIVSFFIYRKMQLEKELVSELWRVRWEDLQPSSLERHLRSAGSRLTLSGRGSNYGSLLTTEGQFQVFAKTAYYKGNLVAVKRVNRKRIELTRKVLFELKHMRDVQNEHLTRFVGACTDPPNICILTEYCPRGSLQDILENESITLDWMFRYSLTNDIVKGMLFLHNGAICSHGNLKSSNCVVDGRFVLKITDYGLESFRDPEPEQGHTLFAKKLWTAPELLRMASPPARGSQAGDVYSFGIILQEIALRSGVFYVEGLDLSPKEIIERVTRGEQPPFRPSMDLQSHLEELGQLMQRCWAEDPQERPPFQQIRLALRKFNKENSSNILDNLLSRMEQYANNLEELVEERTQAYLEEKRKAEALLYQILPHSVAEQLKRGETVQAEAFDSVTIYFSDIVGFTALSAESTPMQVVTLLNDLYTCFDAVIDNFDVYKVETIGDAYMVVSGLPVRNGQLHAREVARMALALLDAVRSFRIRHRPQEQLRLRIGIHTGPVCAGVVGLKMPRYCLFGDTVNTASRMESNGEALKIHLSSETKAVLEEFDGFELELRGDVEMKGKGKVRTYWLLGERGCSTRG
Experiment: cell-based or functional assay
Numbered stars: 1 amine (or outer) side, 2 acyl side, 3 side chain; on linkers, the order of the positions; unused ones are H or OH. Bridge positions count the residues as written; N and C are the ends. Square brackets hold non-standard residues; d marks the D form. * marks the point of attachment. thioacetal = thioacetal linkage between two cysteines (intrachain bond at the bracketed Cys); C20 diacid = O=C(O)CCCCCCCCCCCCCCCCCCC(=O)*; γGlu = O=C(O)[C@H](CCC(=O)[*:2])N[*:1]; βAla = NCCC(=O)O
Give bare numbers, in pM.

1. {C20 diacid}-[γGlu]EKEKEKGEKGRSSCFGGRIDRIGHYSGLGCPSLRHGGPSSGAPPPS-NH2 (disulfide 15-31) [Example 51] : 82700
2. SXRRSSCFGGRIDRIGHYSGLGCPSFRHGSPSSGAPPPS (HOOC-(CH2)18-CO-(γGlu)-EKEKEKG-(AEEA)6-S-4Pal-RRSS[CFGGRIDRIGHYSGLGC]PSFRHGSPSSGAPPPS-NH2; thioacetal linkage between the bracketed Cys) [Example 96] : 401000

// next item, cGMP Assay (EC50, pM) w/BSA requested
Problem: State the recorded cGMP Assay (EC50, pM) w/BSA for this entry: {C20 diacid}-[γGlu]EKEKEKGEK[βAla]RSSCFGGRIDRIGHYSGLGCPSFRHGGKSSGAPPPS-NH2 (bridge 15-31 via thioacetal) [Example 76]
Solution: 607000
